Give CC50 for every item shown.
Assay: Cytotoxicity against HIV-1 3B mock-infected human MT4 cells assessed as reduction in cell viability by MTT assay
Format: cell-based
Settings: HIV-1 3B mock-infected MT4 cells

Need CC50, item CC(C)Nc1cccnc1N1CCN(C(=O)c2cc3cc(NS(C)(=O)=O)ccc3[nH]2)CC1
> 36.2 µM

// query CC50 value for entry Cc1ccnc2c1NC(=O)c1cccnc1N2C1CC1
> 15 µM

Would you mind telling me what CC50 value was observed for O=C(CSc1nnccc1-c1cccc2ccccc12)Nc1ccc(Cl)cc1Cl ?
> 284 µM

For Nc1ccn([C@H]2CC[C@@H](CO)O2)c(=O)n1 , what is its reported CC50?
> 94.7 µM

Please give the measured CC50 for this molecule: O=C1Nc2ccc(Cl)cc2[C@@](C#CC2CC2)(C(F)(F)F)O1
> 6.34 µM

The reported numbers originate from ChEMBL document CHEMBL3132824.
